Target: ER-alpha (WT) (Homo sapiens, UniProt P03372)
Construct: endogenous in cells
Sequence (P03372 whole entry): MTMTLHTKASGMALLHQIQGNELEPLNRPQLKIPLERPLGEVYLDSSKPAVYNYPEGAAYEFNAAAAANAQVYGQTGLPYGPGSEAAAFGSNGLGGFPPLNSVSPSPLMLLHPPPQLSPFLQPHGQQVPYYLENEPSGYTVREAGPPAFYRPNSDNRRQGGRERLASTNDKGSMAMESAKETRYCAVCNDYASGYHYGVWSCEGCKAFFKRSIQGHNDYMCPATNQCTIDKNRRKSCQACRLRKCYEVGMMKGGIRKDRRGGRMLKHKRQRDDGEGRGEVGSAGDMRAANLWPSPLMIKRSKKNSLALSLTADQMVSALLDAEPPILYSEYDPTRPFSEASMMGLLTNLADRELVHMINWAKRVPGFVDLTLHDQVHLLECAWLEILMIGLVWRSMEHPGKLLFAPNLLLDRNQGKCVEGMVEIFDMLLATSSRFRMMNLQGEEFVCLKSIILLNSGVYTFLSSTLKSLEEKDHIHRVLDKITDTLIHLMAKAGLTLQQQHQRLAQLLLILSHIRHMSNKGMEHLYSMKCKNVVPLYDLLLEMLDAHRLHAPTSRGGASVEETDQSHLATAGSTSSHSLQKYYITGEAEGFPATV
Assay: Breast Cancer Cell ERa High Content Fluorescence Imaging Degradation Assay (MCF7 HCS)
Details: MCF7 breast cancer cells, 4 hours incubation; inflexion point of curve
In this section we review reported EC50 values for a set of compounds.
Form entry: value (nM) — number only.

Oc1ccc2c(c1)CCN(CC(F)(F)F)C2c1c(F)cc(OC2CN(CCCF)C2)cc1F (single isomer, unassigned) [Example 144] | 0.041
C[C@]1(c2ccc(OCCN3CC(CF)C3)cc2)c2ccc(O)cc2CCN1CC(F)(F)CO | 2.7
Oc1ccc2c(c1)CCN(CC(F)(F)F)[C@@H]2c1c(F)cc(OCCN2CC(CF)C2)cc1F | 0.013
C[C@@H]1Cc2cc(O)ccc2[C@@H](c2ccc(OCCN3CC(CF)C3)cc2)N1S(C)(=O)=O | 0.3
C[C@@H]1Cc2cccc(O)c2[C@@H](c2ccc(OCCN3CC(CF)C3)cc2)N1CC(F)(F)CO (single isomer, unassigned) | 22

Next, consider the following compound.
Qu. Lab note: need EC50 with ER-alpha (WT) (Homo sapiens, UniProt P03372) for entry C[C@@H]1Cc2cc(C(C)(C)O)ccc2[C@@H](c2ccc(OCCN3CC(CF)C3)cc2)N1CC(F)(F)F , please look it up.
Ans. 11
